- System: MOLT-4 leukemia
- METHOD SUMMARY: NCI tumour cell line growth inhibition, 48 h
Listing of recorded TGI by entry.
Give your result in µM as a bare value.

Some molecules with known TGI results, for comparison:
- MOLECULE: "CC/C=C1/C(=O)C=C[C@@H]1C/C=C\\CCCC(=O)OC"
  QUANTITATIVE RESULT: 8.11
- MOLECULE: "[N-]=[N+]=Nc1ccccc1C(=O)N1C(=O)c2ccccc2C(=O)N(C(=O)c2ccccc2N=[N+]=[N-])c2ccccc21"
  QUANTITATIVE RESULT: 50.7
- MOLECULE: "Cc1cc2c(cc1C)N(C(=O)CCl)CC(=O)N2"
  QUANTITATIVE RESULT: 7.01
- MOLECULE: "O=C(CC(=O)N(C(=O)/C=C\\c1ccccc1)c1ccc(Cl)cc1)N1N=C(c2ccccc2)C(N=Nc2cccc([N+](=O)[O-])c2)C1=O (stereo not given)"
  QUANTITATIVE RESULT: 24.7
- MOLECULE: "CC(C)=CCC/C(C)=C/CC/C(C)=C/CC/C(C)=C/C=C/C=C(\\C)CC/C=C(\\C)CC/C=C(\\C)CCC=C(C)C"
  QUANTITATIVE RESULT: 49
- MOLECULE: "COc1ccc2nc3cccc([N+](=O)[O-])c3c(NCCCCCC(=O)O)c2c1"
  QUANTITATIVE RESULT: 0.284

Lab book: TGI of "COC(=O)C1(C(=O)OC)Cc2ccc(OC)cc2C2=C1C(=O)c1ccccc1C2=O" noted as 3.97

Lab book: TGI of CC(=O)CC(=O)OC1CC(C)CCC1C(C)C (stereo not given) noted as 44.2
